Entries and their measured MFI at 0.8 nM follow.
- target.system: human delta-like ligand 3 (DLL3) on SHP77 cells (human) (UniProt Q9NYJ7)
- Sequence (Q9NYJ7 27-618, stated change not applied): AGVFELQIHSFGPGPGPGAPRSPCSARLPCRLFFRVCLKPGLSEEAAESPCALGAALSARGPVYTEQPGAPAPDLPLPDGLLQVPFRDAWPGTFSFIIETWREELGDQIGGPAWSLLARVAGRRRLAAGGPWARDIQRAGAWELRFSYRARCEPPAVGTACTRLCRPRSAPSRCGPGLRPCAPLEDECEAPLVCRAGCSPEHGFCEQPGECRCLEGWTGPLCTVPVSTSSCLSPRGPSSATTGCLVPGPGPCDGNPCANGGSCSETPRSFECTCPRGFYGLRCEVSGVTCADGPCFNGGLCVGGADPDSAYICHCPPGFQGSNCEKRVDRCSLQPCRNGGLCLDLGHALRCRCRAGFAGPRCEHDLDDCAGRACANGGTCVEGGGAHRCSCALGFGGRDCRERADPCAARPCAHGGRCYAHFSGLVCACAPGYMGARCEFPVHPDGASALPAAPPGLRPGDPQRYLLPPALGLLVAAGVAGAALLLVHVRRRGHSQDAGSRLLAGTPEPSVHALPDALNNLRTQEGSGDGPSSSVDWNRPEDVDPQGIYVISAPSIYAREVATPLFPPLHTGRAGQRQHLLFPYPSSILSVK
- protocol.text: FACS on SHP77 cells
Your answer should be a plain number; it is taken to be in MFI.

binder | MFI at 0.8 nM [MFI]
Hab008L3H5-hFc (scFv, part only; not given: scFv linker and human IgG1 Fc, V domains shown, not shown: another chain or arm of the molecule; a dimerising Fc or GST; small tags and cut ends) VL: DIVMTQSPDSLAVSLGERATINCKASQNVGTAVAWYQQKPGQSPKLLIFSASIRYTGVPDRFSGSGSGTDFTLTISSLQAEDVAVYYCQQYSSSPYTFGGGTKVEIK VH: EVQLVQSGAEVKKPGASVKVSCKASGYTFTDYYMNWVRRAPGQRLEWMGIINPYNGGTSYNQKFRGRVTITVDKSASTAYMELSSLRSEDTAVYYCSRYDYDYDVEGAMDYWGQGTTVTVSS | 194

Input: Would you kindly share the measured MFI at 0.8 nM for Hab009VL2aVH1-hFc (scFv, part only; not given: VL-VH linker and human IgG1 Fc, V domains shown, not shown: another chain or arm of the molecule; a dimerising Fc or GST; small tags and cut ends) VL: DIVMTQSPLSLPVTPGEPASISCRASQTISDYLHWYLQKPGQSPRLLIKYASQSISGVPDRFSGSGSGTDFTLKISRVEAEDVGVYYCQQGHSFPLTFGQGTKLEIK VH: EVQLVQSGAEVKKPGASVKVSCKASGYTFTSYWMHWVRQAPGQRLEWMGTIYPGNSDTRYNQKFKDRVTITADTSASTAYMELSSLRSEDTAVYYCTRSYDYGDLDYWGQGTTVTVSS ?
Output: 683

Input: Would you kindly share the measured MFI at 0.8 nM for Hab009VL3aVH1-hFc (Fc fusion, part only; not given: Linker and human IgG1 Fc, not shown: a dimerising Fc or GST) scFv, part: DIVMTQSPLSLPVTPGEPASISCRASQTISDYLHWYLQKSHQSPQLLIKYASQSISGVPDRFSGSGSGTDFTLKISRVEAEDVGVYYCQQGHSFPLTFGQGTKLEIKEVQLVQSGAEVKKPGASVKVSCKASGYTFTSYWMHWVRQAPGQRLEWMGTIYPGNSDTRYNQKFKDRVTITADTSASTAYMELSSLRSEDTAVYYCTRSYDYGDLDYWGQGTTVTVSS ?
Output: 673

Input: Would you kindly share the measured MFI at 0.8 nM for Hab015VL4VH5a-hFc (scFv, part only; not given: VL-VH linker and human IgG1 Fc, V domains shown, not shown: another chain or arm of the molecule; a dimerising Fc or GST; small tags and cut ends) VL: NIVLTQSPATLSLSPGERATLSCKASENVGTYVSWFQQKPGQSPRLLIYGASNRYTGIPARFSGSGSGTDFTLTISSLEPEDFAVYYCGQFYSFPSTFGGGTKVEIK VH: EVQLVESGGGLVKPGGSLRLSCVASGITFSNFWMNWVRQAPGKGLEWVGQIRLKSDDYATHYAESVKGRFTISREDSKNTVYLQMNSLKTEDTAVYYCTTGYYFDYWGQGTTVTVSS ?
Output: 709

Input: Would you kindly share the measured MFI at 0.8 nM for Hab008L1H5-hFc (scFv, part only; not given: VL-VH linker and human IgG1 Fc, V domains shown, not shown: another chain or arm of the molecule; a dimerising Fc or GST; small tags and cut ends) VL: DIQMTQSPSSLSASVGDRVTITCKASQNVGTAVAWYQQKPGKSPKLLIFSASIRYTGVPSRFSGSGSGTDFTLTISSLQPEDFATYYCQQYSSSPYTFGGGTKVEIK VH: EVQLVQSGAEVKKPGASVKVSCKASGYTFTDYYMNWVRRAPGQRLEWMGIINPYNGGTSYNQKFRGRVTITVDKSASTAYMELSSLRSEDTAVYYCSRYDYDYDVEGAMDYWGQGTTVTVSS ?
Output: 186
